Target: endogenous autotaxin (Homo sapiens, UniProt Q13822)
Construct: The increased endogenous LPC levels are cleaved by endogenous autotaxin; tissue Lampire Biologicals; host or cells: pooled human plasma (healthy female donors, sodium heparin)
Test: Reduction of LPA in the Presence of Human Plasma
Format: biochemical
Details: 90% pooled human plasma, 3 hours at 37° C., total LPA by mass spec; arithmetic mean
reported-metric: IC50 (nM)
Please state the figure in nM; there is no need to write the unit.

Req: Look up IC50: O=C(COCCc1cnn[nH]1)N1CCc2nc(NC3Cc4ccccc4C3)ncc2C1 [Example 1 and 1a]
Resp: 10
